# System: MOLT-4 leukemia
# experimentalDetails: NCI tumour cell line growth inhibition, 48 h
valueType: TGI

>>> print(df.to_string())
                                   molecule  valuetype  testvalue
0  Cc1c(C)c(C)c(CC2(C)CSC2)c(CC2(C)CSC2)c1C        TGI   > 100 µM
1  CCOC(=O)CCC(NC(=O)Cc1ccc(Nc2nc3ccccc3nc2-c2cccs2)cc1)C(=O)OCC (centres undefined)        TGI   > 100 µM
2                       COc1c(C)cc(O)cc1C=O        TGI   > 100 µM
3  O=C1c2[nH]cc(CNC3CN4CCC3CC4)c2C(=O)c2c1c(O)c1ccccc1c2O (centres undefined)        TGI    1.72 µM
4                NC(=S)N/N=C/c1nccc2ccccc12        TGI   > 100 µM
5  COc1ccc(-c2csc(=Nc3ccccc3)n2CCCN(C)C)cc1        TGI    48.9 µM
6  CC1=NN(C(=O)c2ccccc2O)C(=O)/C1=C/c1cccc(O)c1        TGI   > 100 µM
7  COC(=O)[C@H](Cc1ccccc1)NC(=O)/C(=C/C(C)C)NC(=O)[C@H](CCSC)NC=O        TGI   > 100 µM
8  O=[N+]([O-])c1ccc(-c2cc(O)c3nc4ccccc4n3c2)cc1        TGI   > 100 µM
